- Measurement Target: JULF2 (Homo sapiens)
- Construct: expressed in transfected cells
- Experimental Protocol: Screening of compounds which inhibit cAMP inhibition action by LTB4 using JULF2 stably expressing CHO cell
- Type: cell-based
Measured Property: IC50 (µM)
Answers are plain numbers, in µM.

# Compound, Measured Property, Val
data = [
    ("CCCCCCCCOc1ccc(C(=N)N)cc1.Cl [compound A, hydrochloride]", "IC50", 0.4),
]

[ask] Name the recorded IC50 of CCCCCCOc1ccc(C(=N)NO)cc1 , assay system JULF2 (Homo sapiens).
[reply] 6.7

---

- Measurement Target: JULF2 (Homo sapiens, UniProt Q9NPC1)
- Construct: expressed in transfected cells
- Sequence (Q9NPC1 whole entry): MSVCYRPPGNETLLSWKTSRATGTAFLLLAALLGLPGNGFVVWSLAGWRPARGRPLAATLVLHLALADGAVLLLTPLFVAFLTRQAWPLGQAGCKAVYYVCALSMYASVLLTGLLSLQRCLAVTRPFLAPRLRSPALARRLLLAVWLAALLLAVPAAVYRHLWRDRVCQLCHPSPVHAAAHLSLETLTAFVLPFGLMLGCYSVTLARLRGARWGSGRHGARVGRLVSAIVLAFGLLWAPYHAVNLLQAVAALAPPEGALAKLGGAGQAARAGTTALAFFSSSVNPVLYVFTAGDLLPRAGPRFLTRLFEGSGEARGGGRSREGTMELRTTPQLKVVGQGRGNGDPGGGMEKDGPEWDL
- Experimental Protocol: Inhibition of binding of [3H]LTB4 to JULF2 expressing cell membrane fraction
Measured Property: IC50 (µM)
Give bare numbers, in µM.

# Compound, Readout Unit, IC50
data = [
    ("CCCCCCOc1ccc(C(=N)NO)cc1", "µM", 5.7),
]

For the next question, use this compound.
[ask] Fill in reported IC50 for this entry: CCCCCCCCOc1ccc(C(=N)N)cc1.Cl [compound A, hydrochloride]
[reply] 0.1

Provenance of the data: patent US20030077709A1
